# Tested on: human peripheral blood mononuclear cells (PBMC)
# methodSummary: Effects on human T-cell proliferation in vitro (3H-thymidine incorporation)
# Assay type: cell-based
# experimentalParameters: Homo sapiens, PBMC, PMA + iono.; 10 μM; read-out: Percentage of inhibition of proliferation of stimulated PBMC
metric: inhibition at 10 µM

compound | result
CC[C@H]1OC(=O)[C@H](C)[C@@H](O[C@H]2C[C@@](C)(OC)[C@@H](O)[C@H](C)O2)[C@H](C)[C@@H](O[C@@H]2O[C@H](C)C[C@H](N(C)C)[C@H]2O)[C@](C)(OC)C[C@@H](C)C(=O)[C@H](C)[C@@H](O)[C@]1(C)O [clarithromycin, reference compound] | 9%
CC[C@H]1OC(=O)[C@H](C)[C@@H](O[C@H]2C[C@@](C)(OC)[C@@H](OC(=O)CCN(C)C)[C@H](C)O2)[C@H](C)[C@@H](O[C@@H]2O[C@H](C)C[C@H](N(C)C)[C@H]2O)[C@](C)(OC)C[C@@H](C)C(=O)N[C@H](C)[C@@H](O)[C@]1(C)O | 29%
CC[C@H]1OC(=O)[C@H](C)[C@@H](O[C@H]2C[C@@](C)(OC)[C@@H](OC(=O)CCN(C)CCO)[C@H](C)O2)[C@H](C)[C@@H](O[C@@H]2O[C@H](C)C[C@H](N(C)C)[C@H]2O)[C@](C)(OC)C[C@@H](C)C(=O)N[C@H](C)[C@@H](O)[C@]1(C)O | 53%
CC[C@H]1OC(=O)[C@H](C)[C@@H](O[C@H]2C[C@@](C)(OC)[C@@H](OC(=O)CCN(CC)CC)[C@H](C)O2)[C@H](C)[C@@H](O[C@@H]2O[C@H](C)C[C@H](N(C)C)[C@H]2O)[C@](C)(O)C[C@@H](C)CN(C)[C@H](C)[C@H]2OC(=O)O[C@@]21C | 90%
CC[C@H]1OC(=O)[C@H](C)[C@@H](O[C@H]2C[C@@](C)(OC)[C@@H](OC(=O)CCN3CCN(CCCN(CC)CC)CC3)[C@H](C)O2)[C@H](C)[C@@H](O[C@@H]2O[C@H](C)C[C@H](N(C)C)[C@H]2O)[C@](C)(OC)C[C@@H](C)C(=O)N[C@H](C)[C@@H](O)[C@]1(C)O | 24%
CC[C@H]1OC(=O)[C@H](C)[C@@H](O[C@H]2C[C@@](C)(OC)[C@@H](OC(=O)CCN(CC)CC)[C@H](C)O2)[C@H](C)[C@@H](O[C@@H]2O[C@H](C)C[C@H](N(C)C)[C@H]2O)[C@](C)(OC)C[C@@H](C)C(=O)[C@H](C)[C@H]2NC(=O)O[C@@]21C | 17%
CC[C@H]1OC(=O)[C@H](C)[C@@H](O[C@H]2C[C@@](C)(OC)[C@@H](OC(=O)CCN3CCN(CCN(CC)CC)CC3)[C@H](C)O2)[C@H](C)[C@@H](O[C@@H]2O[C@H](C)C[C@H](N(C)C)[C@H]2O)[C@](C)(OC)C[C@@H](C)C(=O)N[C@H](C)[C@@H](O)[C@]1(C)O | 24%

* * *

Entries annotated with measured inhibition at 10 µM
# System: TNF-α
# methodSummary: Inhibition of TNF-α production by stimulated human peripheral blood leukocytes in vitro
# Assay type: cell-based
# experimentalParameters: Homo sapiens, Leukocyte, 10 μM; LPS-stimulated PBL; read-out: Percentage of inhibition of TNF-α production

compound | inhibition at 10 µM (%)
CC[C@H]1OC(=O)[C@H](C)[C@@H](O[C@H]2C[C@@](C)(OC)[C@@H](OC(=O)CCN(CC)CC)[C@H](C)O2)[C@H](C)[C@@H](O[C@@H]2O[C@H](C)C[C@H](N(C)C)[C@H]2O)[C@](C)(O)C[C@@H](C)CN(C)[C@H](C)[C@@H](O)[C@]1(C)O [Example 48] | 49
CC[C@H]1OC(=O)[C@H](C)[C@@H](O[C@H]2C[C@@](C)(OC)[C@@H](OC(=O)CCN3CCN(CC4CCCN(C)C4)CC3)[C@H](C)O2)[C@H](C)[C@@H](O[C@@H]2O[C@H](C)C[C@H](N(C)C)[C@H]2O)[C@](C)(OC)C[C@@H](C)C(=O)N[C@H](C)[C@@H](O)[C@]1(C)O (stereo partly drawn) [Example 33] | 16
CC[C@H]1OC(=O)[C@H](C)[C@@H](O[C@H]2C[C@@](C)(OC)[C@@H](OC(=O)CCN(C)CCN(CC)CC)[C@H](C)O2)[C@H](C)[C@@H](O[C@@H]2O[C@H](C)C[C@H](N(C)C)[C@H]2O)[C@](C)(OC)C[C@@H](C)C(=O)N[C@H](C)[C@@H](O)[C@]1(C)O [Example 21] | 0
